Reference source: the supplement of paper PMC10883282

system: SK-LMS-1; experiment: relative viability vs DMSO control (72 h) (fraction); higher = more viable cells; details: 0.00051 µM
// reported relative viability for each item listed
Please state the value as a number alone, without comment.

Consider the following illustrative entries.
[
  {
    "molecule": "Cn1ncnc1[C@H]1c2n[nH]c(=O)c3cc(F)cc(c23)N[C@@H]1c1ccc(F)cc1 [Talazoparib]",
    "observedResult": 1.05
  },
  {
    "molecule": "Cn1cc(C2=C(c3cn(C4CCN(Cc5ccccn5)CC4)c4ccccc34)C(=O)NC2=O)c2ccccc21 [Enzastaurin]",
    "observedResult": 1.07
  },
  {
    "molecule": "CNC(=O)c1ccccc1Sc1ccc2c(/C=C/c3ccccn3)n[nH]c2c1 [Axitinib]",
    "observedResult": 1.14
  },
  {
    "molecule": "CC(C)Oc1ccc(-c2nn([C@@H](C)c3oc4ccc(F)cc4c(=O)c3-c3cccc(F)c3)c3ncnc(N)c23)cc1F [Umbralisib]",
    "observedResult": 1.06
  },
  {
    "molecule": "CNC(=O)c1nnc(NC(=O)C2CC2)cc1Nc1cccc(-c2ncn(C)n2)c1OC",
    "observedResult": 1.09
  },
  {
    "molecule": "CC1(C)CC=C(c2nc(C3CC(C)(C)OC(C)(C)C3)ccc2NC(=O)c2nc(C#N)c[nH]2)CC1 [Edicotinib]",
    "observedResult": 1.02
  }
]

Here is the next item to consider.
Data request: # query: relative viability of entry CN1CCN(c2ccc(C(=O)Nc3n[nH]c4ccc(Cc5cc(F)cc(F)c5)cc34)c(NC3CCOCC3)c2)CC1 [Entrectinib]
Data returned: 1.1
